# Tested on: Monocotyledonous and dicotyledonous test plants
# assay_overview: Herbicidal action before emergence of the plants (pre-emergence action)
# Assay type: in vivo
# assay_context: Digitaria; 250 g/ha; evaluated after 3 weeks; nine-step scale
Here the recorded Pre-emergence action, Digitaria is given for each entry.
Reply: number alone, nothing else.

[
  {
    "molecule": "COCc1nc(C(F)(F)F)ccc1C(=O)C1=C(O)C(C)(C)C(C)CC1=O (stereo not shown)",
    "readout_value": 3
  },
  {
    "molecule": "CCOC(=O)OCc1nc(C(F)(F)F)ccc1C(=O)C1=C(O)C(C)(C)C(=O)C(C)(C)C1=O",
    "readout_value": 1
  },
  {
    "molecule": "COCc1nc(C(F)(F)F)ccc1C(=O)C1=C(O)CC(C)(C)CC1=O",
    "readout_value": 3
  }
]

Attention now turns to another entry.
Q) // query Pre-emergence action, Digitaria value for entry Cc1c(C(=O)C2=C(Cl)C(C)(C)C(=O)C(C)(C)C2=O)ccc(C(F)(F)F)[n+]1[O-]
A) 3

---

# pre-emergence action, Cyperus annotations
# System: Monocotyledonous and dicotyledonous test plants
# assay_overview: Herbicidal action before emergence of the plants (pre-emergence action)
# Type: in vivo
# assay_context: Cyperus; 2000 g/ha; evaluated after 3 weeks; nine-step scale
Lab note: record the figure alone, no unit after it.

Q) Find the recorded pre-emergence action, Cyperus belonging to Cc1nc(C(F)(F)F)ccc1C(=O)C1=C(O)C(C)CC2(CCC2)C1=O (centres unmarked) and report it.
A) 1

Q) Requested read-out: pre-emergence action, Cyperus. Entry: COCc1nc(C(F)(F)F)ccc1C(=O)C1=C(O)CC(C(F)(F)F)CC1=O (centres unmarked)
A) 2

Q) Consider the compound COC(=O)C1C(O)=C(C(=O)c2ccc(C(F)(F)F)nc2C)C(=O)CC1C (centres unmarked) and give its measured pre-emergence action, Cyperus.
A) 3

Q) Item under review: Cc1cc(C(=O)C2=C(O)C(C)(C)CCC2=O)c(C)nc1C(F)(F)F . Reported pre-emergence action, Cyperus?
A) 1

Q) For the compound shown here, CCC1(C)CC(C)(C)C(=O)C(C(=O)c2ccc(C(F)(F)F)nc2C)=C1O (centres unmarked) , give the reported pre-emergence action, Cyperus.
A) 1

Q) Recorded pre-emergence action, Cyperus for Cc1nc(C(F)(F)F)ccc1C(=O)C1=C(O)C(C)C(C)(C)CC1=O (centres unmarked) , please?
A) 3

Q) Entry Cc1nc(C(F)(F)F)ccc1C(=O)C1=C(O)C(C)(C)OCC1=O : reported pre-emergence action, Cyperus = ?
A) 1

Q) Look up pre-emergence action, Cyperus for this compound: Cc1nc(C(F)(F)F)ccc1C(=O)C1=C(O)C(C)(C)C(C)CC1=O (centres unmarked)
A) 1

Q) Dear colleague, I am looking for the recorded pre-emergence action, Cyperus of the following compound: Cc1nc(C(F)(F)F)ccc1C(=O)C1=C(O)C(C)(C)CC2(CC2)C1=O
A) 1

---

# Test system: Monocotyledonous and dicotyledonous test plants
# assay_overview: Herbicidal action before emergence of the plants (pre-emergence action)
# Type: in vivo
# assay_context: Digitaria; 250 g/ha; evaluated after 3 weeks; nine-step scale
Below, each entry is listed with its recorded Pre-emergence action, Digitaria.
When you answer, write just the number.

Would you please look over these solved cases?
[
  {
    "compound": "COCc1nc(C(F)(F)F)ccc1C(=O)C1=C(O)CCCC1=O [Compound A8-B1]",
    "assay_target": "Monocotyledonous and dicotyledonous test plants",
    "Pre-emergence action, Digitaria": 2
  },
  {
    "compound": "COc1nc(C(F)(F)F)ccc1C(=O)C1=C(O)C(C)(C)CCC1=O [Compound A1022-B24]",
    "assay_target": "Monocotyledonous and dicotyledonous test plants",
    "Pre-emergence action, Digitaria": 4
  },
  {
    "compound": "COCc1nc(C(F)(F)F)ccc1C(=O)C1=C(O)C(C)(C)OCC1=O [Compound A8-B552]",
    "assay_target": "Monocotyledonous and dicotyledonous test plants",
    "Pre-emergence action, Digitaria": 3
  }
]

Moving on to the next compound.
Q) # get_value(readout='Pre-emergence action, Digitaria', item= CCOC(=O)C1C(O)=C(C(=O)c2ccc(C(F)(F)F)nc2C)C(=O)CC1C (stereo not shown) [Compound A2-B145] )
A) 2
